# maps each entry to its solvation free energy, 298 K
assay: solvent given as SMILES; conditions: in CCOC(C)=O
Note: a bare number is incomplete; add the unit.

compound: CC(C)C=O
solvation free energy, 298 K: -4.05 kcal/mol
//
compound: Cc1ccccc1C(=O)O
solvation free energy, 298 K: -8.91 kcal/mol
//
compound: CCCC(C)C
solvation free energy, 298 K: -3.29 kcal/mol
//
compound: ClCCCl
solvation free energy, 298 K: -4.72 kcal/mol
//
compound: O=S=O
solvation free energy, 298 K: -3.22 kcal/mol
//
compound: C=CCCCCC
solvation free energy, 298 K: -4.07 kcal/mol
//
compound: O=C(O)c1cccnc1Nc1cccc(C(F)(F)F)c1
solvation free energy, 298 K: -17.3 kcal/mol
//
compound: ClC(Cl)(Cl)Cl
solvation free energy, 298 K: -4.23 kcal/mol
//
compound: c1ccc2c(c1)-c1cccc3cccc-2c13
solvation free energy, 298 K: -12.7 kcal/mol
//
compound: Cc1ccccc1
solvation free energy, 298 K: -5.04 kcal/mol

Task: Specify solvation free energy, 298 K for O=c1c2ccccc2sc2ccccc12 and stop.
Output: -12.5 kcal/mol

Task: Report solvation free energy, 298 K, nothing else, for this compound: CCCC=O
Output: -4.33 kcal/mol
